Provenance of the data: ChEMBL document CHEMBL1201862

The following compounds are listed with their measured GI50 values.
Tested on: ACHN
Assay: NCI tumour cell line growth inhibition, 48 h
Active and inactive are the calls of the source. No stated cut-off is given here; in the data, active = GI50 up to about 1.1 µM and inactive = higher.
Outcome Measure: GI50

# Compound, Measurement
rows = [
    ("CNCCCNC(=S)Cn1cc(C)c(=O)[nH]c1=O", "> 49.2 µM (inactive)"),
    ("C=C(C)CCC(O)[C@](C)(O)[C@H]1[C@H](O)C[C@@]2(C)[C@@H]3CCc4c(cc(OC5OC(CO)C(O)C(O)C5O)c(O)c4C)C3(C)C(=O)C[C@]12C (some centres undefined)", "> 100 µM (inactive)"),
    ("OC(CCN1CCN(CCOC(c2ccc(F)cc2)c2ccc(F)cc2)CC1)c1ccc(Br)cc1 (centres undefined)", "4.76 µM (inactive)"),
    ("O=c1[nH]c2ccc(Cl)cc2o1", "> 100 µM (inactive)"),
    ("O=c1c2cc(Br)ccc2n(C2OC(CO)C(O)C(O)C2O)c(=S)n1-c1ccccc1 (centres undefined)", "> 100 µM (inactive)"),
    ("COC(=O)[C@]12CCC(=O)N1[C@H](C(=O)O)Cc1c2[nH]c2ccccc12", "> 100 µM (inactive)"),
    ("CC(C)(Oc1ccc(/C=C/C(=O)c2ccc(Cl)cc2)cc1)C(=O)Nc1c(Cl)cccc1Cl", "20.9 µM (inactive)"),
    ("NCCO/C=C/C(N)C(=O)O (centres undefined)", "> 100 µM (inactive)"),
    ("CCC(=O)C(CCN1CCC(N2C(=O)C(CCC#N)c3ccccc32)CC1)(c1ccccc1)c1ccccc1 (centres undefined)", "15.9 µM (inactive)"),
]

###

Tested on: CAKI-1
Test: NCI tumour cell line growth inhibition, 48 h
Active and inactive are the calls of the source. No stated cut-off is given here; in the data, active = GI50 up to about 1.1 µM and inactive = higher.
The following compounds are listed with their measured GI50 values.
Outcome Measure: GI50

# Compound, Outcome Measure, Measurement
records = [
    ("COc1ncc(C#CC(=O)c2ccccc2)c(OC)n1", "GI50", "2.76 µM (inactive)"),
    ("COc1cc2c(cc1OC)C(Cl)C(c1ccc(Cl)c(Cl)c1)=C2Cl (stereo unspecified)", "GI50", "11.2 µM (inactive)"),
    ("O=c1[nH]nc(Cc2ccccc2)n1CCCl", "GI50", "> 100 µM (inactive)"),
    ("O=[N+]([O-])c1ccc2c(c1)S(=O)(=O)N1Cc3ccccc3CCN21", "GI50", "> 100 µM (inactive)"),
    ("O=C1C(Cl)=C(N2CCN(c3ccccn3)CC2)C(=O)c2ncccc21", "GI50", "2.13 µM (inactive)"),
    ("CCOC(=O)c1csc(NC(=O)CN2CCOCC2)n1", "GI50", "> 100 µM (inactive)"),
]

###

System: BT-549
Assay: NCI tumour cell line growth inhibition, 48 h
Calls of active or inactive are those of the source. No stated cut-off is given here; in the data, active = GI50 up to about 1.1 µM and inactive = higher.
Outcome Measure: GI50

# Compound, Measurement
rows = [
    ("N#CC(C#N)=Cc1c(O)ccc2ccccc12", "16.7 µM (inactive)"),
    ("Cc1cc(C)c(C2CC(O)C(CO)O2)cc1C (stereo unspecified)", "> 100 µM (inactive)"),
    ("O=C(CCCCCCCCC(=O)N1C(=O)CC(=O)N(c2ccccc2)C1=S)N1C(=O)CC(=O)N(c2ccccc2)C1=S", "> 100 µM (inactive)"),
    ("O=C1/C(=C/c2ccc(O)c(O)c2)CC/C1=C\\c1ccc(O)c(O)c1", "5.04 µM (inactive)"),
    ("O=C(C/C(=N/O)C(F)(F)F)c1cccs1", "> 100 µM (inactive)"),
    ("COC(=O)C12CCCN1CCC2", "> 100 µM (inactive)"),
]
